Test system: Escherichia coli TOP10;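 note: peptides expressed intracellularly from a pBAD plasmid library in pooled LB shake-flask culture, induced with 0.3% L-arabinose, DNA abundance read by NGS, three biological replicates, DESeq2 with apeglm shrinkage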
assay.explanation: shrunken log2 fold change of peptide-encoding DNA abundance (4.5 h post-induction vs induction); higher = less antimicrobial activity (less host growth inhibition)
cond: time post-induction: 4.5 h; library: site-saturation at positions 5, 18, 19, 20
observation.type: shrunken log2 fold change
Give the figure only, with no unit attached.

Recorded results for 8 sequences are shown here.
RRIRIRPPRLPRPRPRPPATPRP	0.177
RRIRLRPPRLPRPRPRPLEHPRP	0.0313
RRIRKRPPRLPRPRPRPLQWPRP	0.0701
RRIRDRPPRLPRPRPRPYRFPRP	-0.0178
RRIRSRPPRLPRPRPRPWNPPRP	-0.00281
RRIRRRPPRLPRPRPRPCLDPRP	-0.167
RRIRFRPPRLPRPRPRPHIPPRP	-0.289
RRIRTRPPRLPRPRPRPILQPRP	-0.44

Query :: Bench note: what shrunken log2 fold change did RRIRTRPPRLPRPRPRPSKLPRP show?
Result :: -0.473

Query :: Please report the recorded shrunken log2 fold change for RRIRTRPPRLPRPRPRPPPFPRP .
Result :: 0.452

Query :: Query: shrunken log2 fold change; subject: RRIRSRPPRLPRPRPRPCQFPRP
Result :: -0.0444

Query :: Could you tell me which shrunken log2 fold change is on file for RRIRTRPPRLPRPRPRPKHWPRP ?
Result :: 0.441

Query :: For RRIRDRPPRLPRPRPRPMGNPRP , what is its reported shrunken log2 fold change?
Result :: -0.107

Query :: Form field: reported shrunken log2 fold change of RRIRQRPPRLPRPRPRPQEAPRP
Result :: 0.0238

Query :: Can you look up the measured shrunken log2 fold change of RRIRMRPPRLPRPRPRPIFVPRP for me?
Result :: -0.111

Query :: Return reported shrunken log2 fold change; argument: RRIRARPPRLPRPRPRPHINPRP
Result :: -0.325

Query :: // returns reported shrunken log2 fold change for input RRIRVRPPRLPRPRPRPWIKPRP
Result :: 0.0141

Query :: Entry RRIRKRPPRLPRPRPRPPGCPRP has what shrunken log2 fold change?
Result :: 0.955

Query :: Reported shrunken log2 fold change for RRIRARPPRLPRPRPRPGYDPRP : what is it?
Result :: -0.0224
